Please respond with reported MIC for every item in the list.
Number in µM, nothing else.

Incoming: Provide MIC, recorded with Mycobacterium tuberculosis H37Ra ATCC 25177, of COc1ccccc1NC(=O)c1c(O)ccc2ccccc12
Outgoing: 852

Incoming: Provide MIC, recorded with Mycobacterium tuberculosis H37Ra ATCC 25177, of O=C(Nc1ccccc1)c1c(O)ccc2ccccc12
Outgoing: 94

Incoming: Provide MIC, recorded with Mycobacterium tuberculosis H37Ra ATCC 25177, of CCCOc1ccc(NC(=O)c2ccc3ccccc3c2O)cc1 [Compound 11c]
Outgoing: 778

Incoming: Provide MIC, recorded with Mycobacterium tuberculosis H37Ra ATCC 25177, of CCOc1ccccc1NC(=O)c1ccc2ccccc2c1O [Compound 10a]
Outgoing: 813

Incoming: Provide MIC, recorded with Mycobacterium tuberculosis H37Ra ATCC 25177, of CCC(C)Oc1cccc(NC(=O)c2ccc3ccccc3c2O)c1 (centres unmarked) [Compound 14b]
Outgoing: 23

Incoming: Provide MIC, recorded with Mycobacterium tuberculosis H37Ra ATCC 25177, of CCCCOc1ccc(NC(=O)c2c(O)ccc3ccccc23)cc1
Outgoing: 745

Incoming: Provide MIC, recorded with Mycobacterium tuberculosis H37Ra ATCC 25177, of CCC(C)Oc1ccc(NC(=O)c2ccc3ccccc3c2O)cc1 (centres unmarked) [Compound 14c]
Outgoing: 745

Incoming: Provide MIC, recorded with Mycobacterium tuberculosis H37Ra ATCC 25177, of CCCCOc1cccc(NC(=O)c2c(O)ccc3ccccc23)c1
Outgoing: 23

Incoming: Provide MIC, recorded with Mycobacterium tuberculosis H37Ra ATCC 25177, of CCCOc1cccc(NC(=O)c2c(O)ccc3ccccc23)c1
Outgoing: 46

Incoming: Provide MIC, recorded with Mycobacterium tuberculosis H37Ra ATCC 25177, of CCOc1ccc(NC(=O)c2ccc3ccccc3c2O)cc1 [Compound 10c]
Outgoing: 813

Incoming: Provide MIC, recorded with Mycobacterium tuberculosis H37Ra ATCC 25177, of CCC(C)Oc1ccc(NC(=O)c2c(O)ccc3ccccc23)cc1 (centres unmarked)
Outgoing: 23

Incoming: Provide MIC, recorded with Mycobacterium tuberculosis H37Ra ATCC 25177, of NNC(=O)c1ccncc1 [INH, isoniazid, reference compound]
Outgoing: 58

Incoming: Provide MIC, recorded with Mycobacterium tuberculosis H37Ra ATCC 25177, of CCC(C)Oc1ccccc1NC(=O)c1c(O)ccc2ccccc12 (centres unmarked)
Outgoing: 44

Incoming: Provide MIC, recorded with Mycobacterium tuberculosis H37Ra ATCC 25177, of CCOc1cccc(NC(=O)c2ccc3ccccc3c2O)c1 [Compound 10b]
Outgoing: 813

Incoming: Provide MIC, recorded with Mycobacterium tuberculosis H37Ra ATCC 25177, of CCCOc1ccc(NC(=O)c2c(O)ccc3ccccc23)cc1
Outgoing: 12

Incoming: Provide MIC, recorded with Mycobacterium tuberculosis H37Ra ATCC 25177, of COc1ccccc1NC(=O)c1ccc2ccccc2c1O
Outgoing: 852

Incoming: Provide MIC, recorded with Mycobacterium tuberculosis H37Ra ATCC 25177, of CCCCOc1ccccc1NC(=O)c1c(O)ccc2ccccc12
Outgoing: 745

Incoming: Provide MIC, recorded with Mycobacterium tuberculosis H37Ra ATCC 25177, of CC(C)Oc1cccc(NC(=O)c2c(O)ccc3ccccc23)c1
Outgoing: 778

Incoming: Provide MIC, recorded with Mycobacterium tuberculosis H37Ra ATCC 25177, of CCCOc1ccccc1NC(=O)c1ccc2ccccc2c1O [Compound 11a]
Outgoing: 778

Incoming: Provide MIC, recorded with Mycobacterium tuberculosis H37Ra ATCC 25177, of CC(C)Oc1cccc(NC(=O)c2ccc3ccccc3c2O)c1 [Compound 13b]
Outgoing: 389
